Source listed as paper doi:10.1101/659037.

target_desc: rPrP23-231 (full-length recombinant prion protein) (murine, UniProt P04925 23-231)
Sequence (P04925 23-231): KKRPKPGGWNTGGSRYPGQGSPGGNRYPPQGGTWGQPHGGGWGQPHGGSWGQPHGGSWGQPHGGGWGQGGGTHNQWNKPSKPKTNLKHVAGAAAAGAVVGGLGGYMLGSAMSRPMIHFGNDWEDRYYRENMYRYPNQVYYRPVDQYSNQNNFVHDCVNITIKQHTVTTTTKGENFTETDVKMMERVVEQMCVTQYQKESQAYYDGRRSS
test: ITC
A collection of binders and their measured pKd
# reply with the number alone; pKd is -log10 of concentration in mol/L

TGGTGGTAACAGACCCTTCCACGGC (ssDNA) [A2]
5.83

Here is the next item to consider.
Exercise: State its pKd: CCGCGTACAATCGAGCTCGGGTGTC (structured_DNA) [A1]
Solution: 6.08
